# SYSTEM_TESTED: Botulinum neurotoxin type A (Clostridium botulinum) (UniProt P0DPI0)
# Sequence (P0DPI0 whole entry, looked up): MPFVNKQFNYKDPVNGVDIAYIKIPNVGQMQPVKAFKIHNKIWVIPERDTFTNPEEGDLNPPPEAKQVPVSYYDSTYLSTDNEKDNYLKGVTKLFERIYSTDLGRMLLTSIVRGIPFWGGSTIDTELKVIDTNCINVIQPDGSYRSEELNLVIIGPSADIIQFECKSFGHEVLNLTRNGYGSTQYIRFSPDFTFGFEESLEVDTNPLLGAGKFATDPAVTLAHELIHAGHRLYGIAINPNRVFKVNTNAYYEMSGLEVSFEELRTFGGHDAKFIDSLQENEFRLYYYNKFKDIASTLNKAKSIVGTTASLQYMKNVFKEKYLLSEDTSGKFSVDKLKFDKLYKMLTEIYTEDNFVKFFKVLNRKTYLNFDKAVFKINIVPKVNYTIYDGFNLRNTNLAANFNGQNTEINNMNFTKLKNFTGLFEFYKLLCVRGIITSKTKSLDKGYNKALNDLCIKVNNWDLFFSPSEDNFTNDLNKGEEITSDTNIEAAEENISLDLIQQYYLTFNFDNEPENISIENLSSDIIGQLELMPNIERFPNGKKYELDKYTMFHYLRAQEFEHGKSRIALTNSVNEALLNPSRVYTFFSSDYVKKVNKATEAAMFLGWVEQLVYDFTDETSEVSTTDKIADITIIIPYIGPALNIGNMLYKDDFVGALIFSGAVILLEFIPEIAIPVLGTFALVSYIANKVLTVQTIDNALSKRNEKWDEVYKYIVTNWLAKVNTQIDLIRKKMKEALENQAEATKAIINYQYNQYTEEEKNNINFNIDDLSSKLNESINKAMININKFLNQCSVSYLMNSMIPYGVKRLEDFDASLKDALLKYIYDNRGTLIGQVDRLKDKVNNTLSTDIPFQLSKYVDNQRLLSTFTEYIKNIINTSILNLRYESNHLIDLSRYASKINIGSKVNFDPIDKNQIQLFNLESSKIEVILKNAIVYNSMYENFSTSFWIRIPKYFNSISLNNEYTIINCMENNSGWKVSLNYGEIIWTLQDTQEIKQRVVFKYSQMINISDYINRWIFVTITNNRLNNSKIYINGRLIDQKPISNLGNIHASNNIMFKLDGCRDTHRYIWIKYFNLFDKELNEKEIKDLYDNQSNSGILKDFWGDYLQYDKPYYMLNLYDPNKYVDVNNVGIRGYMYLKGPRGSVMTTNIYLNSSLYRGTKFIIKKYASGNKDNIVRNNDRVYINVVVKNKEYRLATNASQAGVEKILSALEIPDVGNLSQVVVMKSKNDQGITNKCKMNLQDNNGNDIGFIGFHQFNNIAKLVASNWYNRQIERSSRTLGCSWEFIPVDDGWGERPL
# ASSAY_NOTES: BoNT/A light chain protease inhibitors, biochemical, multiplex microsphere flow cytometry, validation set (AID 588460)
# PARTICULARS: at 10 µM, hits give high values
Task for the reader: assign each of the following compounds its reported inhibition.
Give bare numbers, in %.

O=C(Nc1ncc2c(n1)CC(c1ccco1)CC2=O)c1ccco1 (centres undefined) | -3.2
NS(=O)(=O)c1cc(C2(O)NC(=O)c3ccccc32)ccc1Cl (centres undefined) | -1.6
O=C(O)CCCCCCCC(=O)O | -0.8

Provide inhibition for all items below, preserving their order.
1. Cc1oc2ccc(OC(=O)c3cccs3)cc2c1C(=O)OC(C)C
2. O=C(NCC1CCCO1)c1ccc(OC2CCN(C(=O)C3CC3)CC2)cc1 (centres undefined)
3. CCCCC[C@H](O)/C=C/C1=C(CCCCCCC(=O)O)C(=O)CC1
4. COc1cccc(NC(=O)C2CC(=O)OC23CCOC(C)(C)C3)c1 (centres undefined)
5. COc1cccc(Oc2c(C)oc3cc(OC(=O)N(C)C)ccc3c2=O)c1

[-1.1, 0.5, -0.5, -1.3, -0.4]

Your task in this section: give inhibition for each listed record.
1. O=C(NC(=S)Nc1ccc(N2CCN(C(=O)c3ccccc3)CC2)cc1)c1cccs1
2. O=C(/C=C/c1ccco1)Nc1ccccc1C(=O)O
3. CC(C)(Sc1cc(C(C)(C)C)c(O)c(C(C)(C)C)c1)Sc1cc(C(C)(C)C)c(O)c(C(C)(C)C)c1
4. CCSC(SCC)[C@H](O)[C@@H](O)[C@H](O)[C@H](O)CO
5. COc1ccc(NS(=O)(=O)c2ccc(N)cc2)nn1
6. NCCCC(N)(C(=O)O)C(F)F (centres undefined)

[-3.2, -0.2, -2.2, -0.7, 2, 0.5]

I need inhibition for every entry listed below, if you could help.
1. CC(C)c1cc(=O)oc2c3c4c(cc12)CCCN4CCC3
2. COc1cc(C2CC(=O)NC3=C2C(=O)CC(C)(C)C3)ccc1O (centres undefined)
3. COCCOC(=O)C1=C(C)NC(C)=C(C(=O)OC(C)C)C1c1cccc([N+](=O)[O-])c1 (centres undefined)
4. CC(=O)CCCCn1c(=O)c2c(ncn2C)n(C)c1=O
5. CCOc1ccc2nc(N/C(N)=N/S(C)(=O)=O)nc(C)c2c1
6. CC1(C)CC(=O)c2cc(O)ccc2O1
7. O=c1[nH]c(=O)n([C@H]2C[C@H](O)[C@@H](CO)O2)cc1C(F)(F)F

[2, 0.3, -0.7, 0.1, -0.1, 0.1, 0]

For every item below, please supply its inhibition.
1. O=C(Cc1c[nH]c2ccccc12)OCCOC(=O)Cc1c[nH]c2ccccc12
2. CC(=O)OCC(OC(C)=O)C(OC(C)=O)C(OC(C)=O)C(=O)Nc1cccc(C)c1 (centres undefined)
3. C[C@H]([C@@H](N)C(=O)N[C@@H](C(=O)O)[C@@H]1O[C@H](n2ccc(=O)[nH]c2=O)[C@@H](O)[C@H]1O)[C@@H](O)c1ccc(O)cn1
4. c1ccc(Nc2ccccn2)nc1
5. CCC(NC(C)C)C(O)c1ccc(O)c(O)c1 (centres undefined)
6. CC1/C(=C\c2ccc(Cl)cc2)C(=O)C2CC1C2(C)C (centres undefined)
7. COC(=O)c1cc(OC)c(OC)cc1NC(=O)Nc1ccc(OC)cc1OC
8. OC(C#CCN1CCCC1)(c1ccccc1)c1cccnc1 (centres undefined)

-0.1
1.2
-1
-2.1
-0.9
0.2
-0.8
-1
